src = ChEMBL document CHEMBL1121423

Species: Mus musculus
Assay: Effect on the antagonism of nicotine-induced death (D)
Assay type: functional
Settings: Mus musculus; read-out: ED50
ED50 strictly under 1 mg/kg means T; at 1 mg/kg or over means F.

Below, 5 compounds whose answers are already recorded.
CN1CCN(CCCn2nc3n(c2=O)-c2ccc(Cl)cc2C(c2ccccc2Cl)=NC3)CC1    T
CC(CN(C)C)Cn1nc2n(c1=O)-c1ccc(Cl)cc1C(c1ccccc1Cl)=NC2 (stereo not given)    F
CCN(CC)CCn1nc2n(c1=O)-c1ccc(Cl)cc1C(c1ccccc1)=NC2    F
Cn1nc2n(c1=O)-c1ccc(Cl)cc1C(c1ccccc1)=NC2    T
O=c1n(CCCN2CCN(CCO)CC2)nc2n1-c1ccc(Cl)cc1C(c1ccccc1Cl)=NC2    T

Lab log: compare recorded ED50 with 1 mg/kg; is it strictly lower for CN1CCN(CCn2nc3n(c2=O)-c2ccc(Cl)cc2C(c2ccccc2)=NC3)CC1 ?
F

Given O=c1n(CCCN2CCN(c3ccccc3)CC2)nc2n1-c1ccc(Cl)cc1C(c1ccccc1Cl)=NC2 , is recorded ED50 strictly lower than 1 mg/kg?
F

is_below(ED50, 1 mg/kg) for CN(C)CCCn1nc2n(c1=O)-c1ccc(Cl)cc1C(c1ccccc1Cl)=NC2 ?
F

Could you please tell me whether ED50 recorded for Oc1nnc2n1-c1ccc(Cl)cc1C(c1ccccc1)=NC2 is less than 1 mg/kg?
F

Lab note: ED50 threshold 1 mg/kg. Does this compound come in strictly under it? Oc1nnc2n1-c1ccc(Cl)cc1C(c1ccccc1Cl)=NC2
T

---

Organism: Mus musculus
Experiment: Effect on the potentiation of yohimbine-induced toxicity (Y) in aggregated mice
Assay type: functional
Form field: ED50 (one value per entry).

In the examples that follow, each entry is paired with its recorded ED50.
CN1CCN(CCn2nc3n(c2=O)-c2ccc(Cl)cc2C(c2ccccc2Cl)=NC3)CC1    > 25 mg/kg
Oc1nnc2n1-c1ccc(Cl)cc1C(c1ccccc1)=NC2    > 50 mg/kg
CC(CN(C)C)Cn1nc2n(c1=O)-c1ccc(Cl)cc1C(c1ccccc1Cl)=NC2 (stereo not given)    > 50 mg/kg
Cn1nc2n(c1=O)-c1ccc(Cl)cc1C(c1ccccc1)=NC2    > 50 mg/kg
CN(C)CCCn1nc2n(c1=O)-c1ccc(Cl)cc1C(c1ccccc1)=NC2    > 50 mg/kg
CCN(CC)CCn1nc2n(c1=O)-c1ccc(Cl)cc1C(c1ccccc1)=NC2    > 50 mg/kg

Supply recorded ED50 for Oc1nnc2n1-c1ccc(Cl)cc1C(c1ccccc1Cl)=NC2 here.
> 50 mg/kg

---

Species: Mus musculus
Test: Effect on the antagonism of bicuculline-induced tonic-extensor convulsions (B)
Format: functional
Conditions: Mus musculus; read-out: ED50
measured.endpoint: ED50 (mg/kg)
The figure you give is taken to be in mg/kg; do not add the unit.

For orientation, consider the following solved cases.
CN(C)CCCN1c2ccccc2CCc2ccccc21    21
CN1CCN(CCn2nc3n(c2=O)-c2ccc(Cl)cc2C(c2ccccc2)=NC3)CC1    17.7

We next turn to a different compound, shown below.
Give a short answer stating reported ED50 for CCN(CC)CCn1nc2n(c1=O)-c1ccc(Cl)cc1C(c1ccccc1)=NC2 .
10

---

Form field: log10 of ED50 (one value per entry).
Species: Mus musculus
Experiment: Effect on the antagonism of pentylenetetrazole-induced clonic convulsions (P)
Type: functional
Note: values are log10 of ED50 expressed in mg/kg.

Worked cases, log10 of ED50 given:
CCN(CC)CCn1nc2n(c1=O)-c1ccc(Cl)cc1C(c1ccccc1)=NC2    0.60
CN1C(=O)CN=C(c2ccccc2)c2cc(Cl)ccc21    -1.00
O=c1n(CCCN2CCN(CCO)CC2)nc2n1-c1ccc(Cl)cc1C(c1ccccc1Cl)=NC2    0.80
CN(C)CCn1nc2n(c1=O)-c1ccc(Cl)cc1C(c1ccccc1)=NC2    0.51
Cn1nc2n(c1=O)-c1ccc(Cl)cc1C(c1ccccc1)=NC2    0.40

In the following, a different compound is considered.
Read the entry CN(C)Cc1nnc2n1-c1ccc(Cl)cc1C(c1ccccc1)=NC2 and write its reported log10 of ED50.
-0.05

---

Species on record: Mus musculus
Assay: Effect on the antagonism of oxotremorine-induced hypothermia (OX)
Assay type: functional
measured.endpoint: ED50

CNCCCn1nc2n(c1=O)-c1ccc(Cl)cc1C(c1ccccc1Cl)=NC2    > 50 mg/kg

State, in one line, measured ED50 of CCN(CC)CCn1nc2n(c1=O)-c1ccc(Cl)cc1C(c1ccccc1Cl)=NC2
> 100 mg/kg

Recall and state the measured ED50 for CN1CCN(CCn2nc3n(c2=O)-c2ccc(Cl)cc2C(c2ccccc2)=NC3)CC1 .
14.9 mg/kg

Return the recorded ED50 value; entry: O=c1n(CCCN2CCN(c3ccccc3)CC2)nc2n1-c1ccc(Cl)cc1C(c1ccccc1Cl)=NC2
> 50 mg/kg

---

Species on record: Mus musculus
Assay: Effect on the potentiation of yohimbine-induced toxicity (Y) in aggregated mice
Type: functional
Listed compounds paired with reported ED50

Answered examples (2):
CN1CCN(CCn2nc3n(c2=O)-c2ccc(Cl)cc2C(c2ccccc2)=NC3)CC1    > 50 mg/kg
O=c1n(CCCN2CCN(CCO)CC2)nc2n1-c1ccc(Cl)cc1C(c1ccccc1Cl)=NC2    > 25 mg/kg

Determine its reported ED50: CN(C)CCCn1nc2n(c1=O)-c1ccc(Cl)cc1C(c1ccccc1Cl)=NC2
> 50 mg/kg

---

Organism: Mus musculus
Assay: Effect on the antagonism of bicuculline-induced tonic-extensor convulsions (B)
Assay type: functional
Conditions: Mus musculus; read-out: ED50
measured.endpoint: ED50 (mg/kg)
Write down the numeric answer in mg/kg and omit the unit.

These solved cases illustrate the format of a correct answer.
CCN(CC)CCn1nc2n(c1=O)-c1ccc(Cl)cc1C(c1ccccc1Cl)=NC2    0.7
CC(CN(C)C)Cn1nc2n(c1=O)-c1ccc(Cl)cc1C(c1ccccc1Cl)=NC2 (configuration not stated)    7

Give recorded ED50. CN(C)CCn1nc2n(c1=O)-c1ccc(Cl)cc1C(c1ccccc1)=NC2
6

Indicate its recorded ED50; the compound in question is CN1CCN(CCn2nc3n(c2=O)-c2ccc(Cl)cc2C(c2ccccc2Cl)=NC3)CC1
3.1

Note down ED50 recorded for CN(C)CCCn1nc2n(c1=O)-c1ccc(Cl)cc1C(c1ccccc1Cl)=NC2
14.9
